Origin of the recorded values: patent US20260015311A1

Experiment: Toxicokinetic, plasma concentration of compound I-6-II after empty liposome preparation
Type: in vivo, cynomolgus monkeys
Conditions: female, cynomolgus monkey, plasma, im, 1200 ug, empty liposome high-dosage group (1200 μg compound I-6-II/animal), intramuscular, D 29, female, Mean; read-out: t1/2 (converted)
READOUT_NAME: half-life (h)
Numeric answer only, unit h assumed.

Request: Report half-life for CCCCCCCCCOC(=O)CCCCCCCN(CCCCCCCC(=O)OC(CCCCCCCC)CCCCCCCC)[C@@H]1CCC[C@H](O)C1 [Compound (I-6-II)] please.
Response: 5.29

* * *

Experiment: Stability of lipid nanoparticles at 25° C., DLS particle size and PDI
Assay type: physicochemical
Settings: week 2, storage at 25° C.
Recorded measurements of PDI, one per entry
Returns: the value as a bare number; no unit string appended.

Request: Entry CCCCCCCCCOC(=O)CCCCCCCN(CCCCCCCC(=O)OC(CCCCCCCC)CCCCCCCC)C1CCCC(O)C1 (centres unmarked) [Compound 6] : reported PDI = ?
Response: 0.04

* * *

Assay: Toxicokinetic, plasma concentration of compound I-6-II after empty liposome preparation
Format: in vivo, cynomolgus monkeys
Conditions: female, cynomolgus monkey, plasma, im, 300 ug, empty liposome low-dosage group (300 μg compound I-6-II/animal), intramuscular, D 29, female, Mean
READOUT_NAME: AUC(0-t)
Quick note: unit goes after the number.

Request: Query: AUC(0-t); subject: CCCCCCCCCOC(=O)CCCCCCCN(CCCCCCCC(=O)OC(CCCCCCCC)CCCCCCCC)[C@@H]1CCC[C@H](O)C1
Response: 783 ng·h/mL

* * *

Test: Toxicokinetic, plasma concentration of compound I-6-II after empty liposome preparation
Assay type: in vivo, cynomolgus monkeys
Details: male, cynomolgus monkey, plasma, im, 300 ug, empty liposome low-dosage group (300 μg compound I-6-II/animal), intramuscular, D 29, male, Mean
READOUT_NAME: Cmax (ng/mL)
Numbers only here, please. The scale is ng/mL.

Request: Which Cmax is reported for this compound? CCCCCCCCCOC(=O)CCCCCCCN(CCCCCCCC(=O)OC(CCCCCCCC)CCCCCCCC)[C@@H]1CCC[C@H](O)C1
Response: 42.4

* * *

Assay: Toxicokinetic, plasma concentration of compound I-6-II after empty liposome preparation
Type: in vivo, cynomolgus monkeys
Conditions: male, cynomolgus monkey, plasma, im, 1200 ug, empty liposome high-dosage group (1200 μg compound I-6-II/animal), intramuscular, D 1, male, Mean
READOUT_NAME: Tmax
Please report the result as a number followed by the unit.

Request: Please report the recorded Tmax for CCCCCCCCCOC(=O)CCCCCCCN(CCCCCCCC(=O)OC(CCCCCCCC)CCCCCCCC)[C@@H]1CCC[C@H](O)C1 .
Response: 3.2 h

* * *

Test: Toxicokinetic, plasma concentration of compound I-6-II after empty liposome preparation
Type: in vivo, cynomolgus monkeys
Conditions: male, cynomolgus monkey, plasma, im, 1200 ug, empty liposome high-dosage group (1200 μg compound I-6-II/animal), intramuscular, D 29, male, Mean
READOUT_NAME: AUC(0-t) (ng·h/mL)
Return type: number; implicit unit ng·h/mL.

Request: Given the molecule CCCCCCCCCOC(=O)CCCCCCCN(CCCCCCCC(=O)OC(CCCCCCCC)CCCCCCCC)[C@@H]1CCC[C@H](O)C1 , what is its reported AUC(0-t)?
Response: 2280
